Record form. Attribute: pKa. Fill in for each entry.
- protocol: physchem
Please reply with the value in numeric form only.

Request: Find the recorded pKa belonging to Oc1ccc(C(c2ccc(O)cc2)(C(F)(F)F)C(F)(F)F)cc1 and report it.
Response: 8.7

Request: Consider the compound shown here: O=C(c1ccc(O)cc1)c1ccc(O)cc1 [E(iii), 4,4′-dihydroxybenzophenone] What is its recorded pKa?
Response: 7.7

Request: Given Oc1ccc(C(F)(F)F)cc1 , state its recorded pKa.
Response: 8.5
